test system: human beta-coronavirus OC43; assay: microbe, parasite or virus in culture; assay type: cell-based; settings: Betacoronavirus 1, OC43, HeLa, 144 h, OC43 in HeLa cells, 6 days at 33° C., class symbols; read-out: EC50
MEASUREMENT_TYPE: EC50

COMPOUND	MEASURED_TARGET	EC50
COc1ccc2[nH]c(C(=O)N3CCC4(CC4)C[C@H]3C(=O)N[C@@H](C[C@@H]3CCNC3=O)C(=O)C(=O)NC3CC3)cc2c1	human beta-coronavirus OC43	1000 to 10000 nM
COc1cccc2[nH]c(C(=O)N3CCC4(CC4)C[C@H]3C(=O)N[C@@H](C[C@@H]3CCCNC3=O)C(=O)CO)cc12	human beta-coronavirus OC43	1000 to 10000 nM
C[C@@H]1C[C@@H](C(=O)N[C@@H](C[C@@H]2CCNC2=O)C(=O)C(=O)NCc2ccccc2)N(C(=O)c2cc3ccccc3[nH]2)C1	human beta-coronavirus OC43	1000 to 10000 nM

# input for lookup
Sample O=C1NCC[C@H]1C[C@H](NC(=O)[C@@H]1[C@H]2CCC[C@H]2CN1C(=O)c1cc2c(Oc3ccccc3)cccc2[nH]1)C(=O)CO ; EC50 observed: 100 to 1000 nM

* * *

tested on: human beta-coronavirus OC43; test: microbe, parasite or virus in culture; format: cell-based; conditions: Betacoronavirus 1, OC43, HeLa, 144 h, OC43 in HeLa cells, 6 days at 33° C., class symbols; read-out: EC50
pEC50: −log10 of the molar value.
Below, each entry is listed with its recorded pEC50.

MOLECULE	MEASUREMENT_TYPE	VALUE_REPORTED
CC(C)[C@@H]1C[C@@H](C(=O)NC(C[C@@H]2CCNC2=O)C(=O)C(=O)NCc2ccccc2)N(C(=O)c2cc3ccccc3[nH]2)C1 (stereo partly drawn)	pEC50	6.00 to 7.00
COc1cccc2[nH]c(C(=O)N3CC4(CC4)C[C@H]3C(=O)N[C@@H](C[C@@H]3CCCNC3=O)C(=O)CO)cc12	pEC50	6.00 to 7.00
O=C1NCC[C@H]1C[C@H](NC(=O)[C@@H]1[C@H]2CCC[C@H]2CN1C(=O)c1cc2c(Cl)cc(-c3ccccc3)cc2[nH]1)C(=O)CO	pEC50	> 7.00
COc1cccc2[nH]c(C(=O)N3C[C@@H]4CCC[C@@H]4[C@H]3C(=O)N[C@@H](C[C@@H]3CCNC3=O)C(=O)CO)cc12	pEC50	6.00 to 7.00
O=C1NCC[C@H]1C[C@H](NC(=O)[C@@H]1[C@H]2CCC[C@H]2CN1C(=O)c1cc2c(Cl)cc(C(F)(F)F)cc2[nH]1)C(=O)CO	pEC50	> 7.00

The recorded pEC50 for entry O=C(NCc1ccccc1)C(=O)[C@H](C[C@@H]1CCNC1=O)NC(=O)[C@@H]1C[C@]2(CN1C(=O)c1cc3ccccc3[nH]1)CC2(F)F equals 5.00 to 6.00

* * *

Item-by-item account of CC50
test: in vitro; conditions: African green monkey, VeroE6 + CP (CC50), Vero E6-eGFP cells with CP-100356, absence of virus, MTS; numeric bounds

COMPOUND	CC50
COc1cccc2[nH]c(C(=O)N3C[C@@H]4CCC[C@@H]4[C@H]3C(=O)N[C@H](C=O)C[C@@H]3CCNC3=O)cc12 [Compound 14A]	> 100 µM

Lab note: measured CC50 of O=C(NC1CC1)C(=O)[C@H](C[C@@H]1CCNC1=O)NC(=O)[C@@H]1CC2(CCN1C(=O)c1cc3c(Cl)cccc3[nH]1)CC2 was > 50 µM

For reference, reported CC50 for COc1cccc2[nH]c(C(=O)N3CCC4(CC4)C[C@H]3C(=O)N[C@@H](C[C@@H]3CCNC3=O)C(=O)C(=O)NC3CC3)cc12 stands at > 50 µM
